System: Human alphaherpesvirus 1
Assay procedure: Antiviral activity against HSV1 in african green monkey Vero cells assessed as reduction in number of plaques at 0.1 mg/ml after 66 hrs
Assay type: functional
Design: scale not given: the % may be the effect or the level left

Compound smiles: C[C@@]1(CO)C[C@H](O)C[C@@]2(C)[C@H]1CC[C@H]1C[C@H]3C[C@]12CC[C@]3(C)O
Output unit: %
Activity: 67
//
Compound smiles: CC1(C)C[C@H](O)C[C@@]2(C)[C@H]1CC[C@H]1C[C@@]3(O)C[C@]12CC[C@]3(C)O
Output unit: %
Activity: 27
//
Compound smiles: CC1(C)C[C@H](O)C[C@@]2(C)[C@H]1C[C@@H](O)[C@H]1C[C@H]3C[C@]12CC[C@]3(C)O
Output unit: %
Activity: 33
//
Compound smiles: CC1(C)C[C@H](O)C[C@@]2(C)[C@H]1CC[C@@]1(O)C[C@H]3C[C@]12CC[C@]3(C)O
Output unit: %
Activity: 93

###

Assay procedure: Cytotoxicity against african green monkey Vero cells after 66 hrs
Type: cell-based
Settings: chlorocebus sabaeus

Compound smiles: C[C@@]1(CO)C[C@H](O)C[C@@]2(C)[C@H]1CC[C@H]1C[C@H]3C[C@]12CC[C@]3(C)O
CC50 at 66 h / µg/mL: 200
--
Compound smiles: CC1(C)C[C@H](O)C[C@@]2(C)[C@H]1CC[C@H]1C[C@@]3(O)C[C@]12CC[C@]3(C)O
CC50 at 66 h / µg/mL: 150
--
Compound smiles: CC1(C)C[C@H](O)C[C@@]2(C)[C@H]1C[C@@H](O)[C@H]1C[C@H]3C[C@]12CC[C@]3(C)O
CC50 at 66 h / µg/mL: 200
--
Compound smiles: CC1(C)C[C@H](O)C[C@@]2(C)[C@H]1CC[C@H]1C[C@H]3C[C@]12CC[C@]3(C)O
CC50 at 66 h / µg/mL: 40

###

Assay procedure: Cytotoxicity against african green monkey Vero cells after 66 hrs
Type: cell-based
Settings: chlorocebus sabaeus
We begin with a simple list: items and their reported CC50 at 66 h.

Compound: C[C@@]1(CO)[C@H](O)CC[C@@]2(C)[C@H]1CC[C@H]1C[C@@H]3C[C@@]12CC[C@]3(O)CO [APHIDICOLIN]
Inequality sign: =
CC50 at 66 h (µg/mL): 200

Compound: C[C@@]1(CO)C[C@H](O)C[C@@]2(C)[C@H]1CC[C@@]1(O)C[C@H]3C[C@]12CC[C@]3(C)O
Inequality sign: =
CC50 at 66 h (µg/mL): 660

Compound: CC1(C)C[C@H](O)C[C@@]2(C)[C@H]1C[C@H](O)[C@H]1C[C@H]3C[C@]12CC[C@]3(C)O
Inequality sign: =
CC50 at 66 h (µg/mL): 70

Compound: CC1(C)C[C@H](O)C[C@@]2(C)[C@H]1CC[C@@]1(O)C[C@H]3C[C@]12CC[C@]3(C)O
Inequality sign: =
CC50 at 66 h (µg/mL): 300

Compound: C[C@]1(CO)C[C@H](O)C[C@@]2(C)[C@H]1CC[C@H]1C[C@H]3C[C@]12CC[C@]3(C)O
Inequality sign: >
CC50 at 66 h (µg/mL): 399

Compound: CC1(C)C[C@H](O)C[C@@]2(C)[C@H]1C[C@H](O)[C@@]1(O)C[C@H]3C[C@@]21CC[C@]3(C)O
Inequality sign: =
CC50 at 66 h (µg/mL): 40

Compound: C[C@@]1(CO)C[C@H](O)C[C@@]2(C)[C@H]1CC[C@H]1C[C@H]3[C@H](O)[C@]12CC[C@]3(C)O
Inequality sign: =
CC50 at 66 h (µg/mL): 70

Compound: C[C@]1(CO)C[C@H](O)C[C@@]2(C)[C@H]1CC[C@H]1C[C@H]3C[C@]12CC[C@@]3(O)CO
Inequality sign: >
CC50 at 66 h (µg/mL): 399

Data origin, for the record: ChEMBL document CHEMBL1150199
